# target-of-assay: UniProtKB Q27593
# Sequence (Q27593 1-506): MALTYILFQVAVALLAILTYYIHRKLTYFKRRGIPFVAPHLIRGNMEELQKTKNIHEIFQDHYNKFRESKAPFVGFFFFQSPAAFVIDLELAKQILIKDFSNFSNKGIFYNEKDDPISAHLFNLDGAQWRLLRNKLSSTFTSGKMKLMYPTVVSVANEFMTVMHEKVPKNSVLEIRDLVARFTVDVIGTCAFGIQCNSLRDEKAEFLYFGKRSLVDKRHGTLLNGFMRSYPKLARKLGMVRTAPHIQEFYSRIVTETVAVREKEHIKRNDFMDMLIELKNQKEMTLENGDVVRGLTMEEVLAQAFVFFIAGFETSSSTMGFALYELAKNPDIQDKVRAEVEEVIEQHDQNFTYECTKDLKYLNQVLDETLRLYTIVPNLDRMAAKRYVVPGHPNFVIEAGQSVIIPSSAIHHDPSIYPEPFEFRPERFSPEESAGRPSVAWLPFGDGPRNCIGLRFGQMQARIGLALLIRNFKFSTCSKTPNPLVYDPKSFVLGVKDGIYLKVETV
quantity-kind: Kd (µM)

# cpd-smiles, value-measured
rows = [
    ("CCCCCCCCCC(=O)O", 144),
]

(A) CCCCCCCC(=O)O
(B) CCCCCCCCCCCC(=O)O
Q: // which entry reports the smaller Kd, A or B ? Your answer should be the label attached to the chosen record.
Ans: B
